Run parameters: human gut metagenome, 24 h, 2 µM; further: call rule not given here
Parameter measured: Bacterial Biotransformation

Worked cases, Bacterial Biotransformation given:
Exercise: Quick one: Bacterial Biotransformation of Cc1ccc(/C(=C\CN2CCCC2)c2ccccn2)cc1 [TRIPROLIDINE] ?
Key: Compound metabolized

Exercise: For the compound shown here, O=P(O)(O)O.c1ccc(CN(CC2=NCCN2)c2ccccc2)cc1 [ANTAZOLINE PHOSPHATE] , give the reported Bacterial Biotransformation.
Key: Compound NOT metabolized

Exercise: # lookup: Bacterial Biotransformation of CCN1CCCC1CNC(=O)c1cc(S(N)(=O)=O)ccc1OC (stereo not given) [SULPIRIDE]
Key: Compound metabolized

Exercise: Given the compound CCCCC1=NC2(CCCC2)C(=O)N1Cc1ccc(-c2ccccc2-c2nnn[nH]2)cc1 [IRBESARTAN] , what is its reported Bacterial Biotransformation?
Key: Compound metabolized

Others:
Exercise: Give its Bacterial Biotransformation value. Item: NC(=O)N1c2ccccc2CC(=O)c2ccccc21 [OXCARBAZEPINE]
Key: Compound NOT metabolized

----------
Method notes: The drug is tested on WLS-052 corresponding to human gut metagenome with ENA study accession number: PRJEB37062 and ENA sample accession number: ERS12561747 for biotransformation under anaerobic condition. The drug concentrations were measured over 9 timepoints collected between 0 and 24 hours of incubation by liquid-chromatography-coupled mass spectrometry (LC–MS)
Run parameters: 2 µM
Parameter measured: Bacterial Biotransformation

Exercise: Which Bacterial Biotransformation reading was recorded for the compound C=CCc1ccccc1OCC(O)CNC(C)C (centres undefined) ?
Key: Compound NOT metabolized

Exercise: I am curious: what Bacterial Biotransformation value has been reported for Cc1nc(-c2ccc(OCC(C)C)c(C#N)c2)sc1C(=O)O ?
Key: Compound metabolized

Exercise: Param item = COc1ccc2c3c1O[C@H]1C[C@@H](O)C=C[C@@]31CCN(C)C2 ; retrieve measured Bacterial Biotransformation.
Key: Compound NOT metabolized

Exercise: Would you mind telling me what Bacterial Biotransformation value was observed for O=C(O)COCCN1CCN(C(c2ccccc2)c2ccc(Cl)cc2)CC1 (centres undefined) ?
Key: Compound metabolized

Exercise: Return reported Bacterial Biotransformation; argument: CC(CN1c2ccccc2Sc2ccccc21)N(C)C (centres undefined)
Key: Compound NOT metabolized

Exercise: Please look up its Bacterial Biotransformation: COc1cc2nc(N3CCN(C(=O)c4ccco4)CC3)nc(N)c2cc1OC
Key: Compound NOT metabolized

Exercise: # input compound: Cc1cn([C@H]2C[C@H](N=[N+]=[N-])[C@@H](CO)O2)c(=O)[nH]c1=O ; wanted: its Bacterial Biotransformation
Key: Compound NOT metabolized

Exercise: Fill in the blank: the reported Bacterial Biotransformation of CC[C@@H](CO)NC(=O)[C@@H]1C=C2c3cccc4c3c(cn4C)C[C@H]2N(C)C1.O=C(O)/C=C\C(=O)O [METHYSERGIDE MALEATE] is ____.
Key: Compound NOT metabolized

# next compound below
Exercise: Bacterial Biotransformation lookup needed for COc1ccc2[nH]c([S+]([O-])Cc3ncc(C)c(OC)c3C)nc2c1 (centres undefined) , thanks.
Key: Compound metabolized

----------
Method notes: The drug is tested on Z-003 corresponding to pig gut metagenome with ENA study accession number: PRJEB37062 and ENA sample accession number: ERS12561803 for biotransformation under anaerobic condition. The drug concentrations were measured over 9 timepoints collected between 0 and 24 hours of incubation by liquid-chromatography-coupled mass spectrometry (LC–MS)
Run parameters: 2 µM
Parameter measured: Bacterial Biotransformation

Study these solved cases before continuing.
Exercise: Give its Bacterial Biotransformation value. Item: CN/C(=N/CCSCc1nc[nH]c1C)NC#N
Key: Compound NOT metabolized

Exercise: Find the recorded Bacterial Biotransformation belonging to Cc1nc2n(c(=O)c1CCN1CCC(c3noc4cc(F)ccc34)CC1)CCCC2 and report it.
Key: Compound metabolized

Exercise: Given the entry O=C(NCc1ccccc1)OCCO [BURAMATE] , report its measured Bacterial Biotransformation.
Key: Compound NOT metabolized

Exercise: Fill in the blank: the reported Bacterial Biotransformation of CCCc1nn(C)c2c(=O)[nH]c(-c3cc(S(=O)(=O)N4CCN(C)CC4)ccc3OCC)nc12.O=C(O)CC(O)(CC(=O)O)C(=O)O [SILDENAFIL CITRATE] is ____.
Key: Compound NOT metabolized

More entries:
Exercise: Looking for the measured Bacterial Biotransformation of CC(C(=O)O)c1ccc2c(c1)Cc1cccnc1O2 (centres undefined) , can you help?
Key: Compound metabolized

Exercise: Fill in: Bacterial Biotransformation of Nc1c2c(nc3ccccc13)CCCC2 is ___
Key: Compound NOT metabolized

Exercise: Dear colleague, I am looking for the recorded Bacterial Biotransformation of the following compound: COc1ccccc1OCC(O)CN1CCN(CC(=O)Nc2c(C)cccc2C)CC1 (centres undefined)
Key: Compound metabolized

Exercise: I'd like to know its Bacterial Biotransformation. The compound in question is CCCCCOC(=O)Nc1nc(=O)n([C@@H]2O[C@H](C)[C@@H](O)[C@H]2O)cc1F
Key: Compound metabolized

Exercise: Sample CN(C)CCc1c[nH]c2ccc(Cn3cncn3)cc12.O=C(O)c1ccccc1 [RIZATRIPTAN BENZOATE] — what was its Bacterial Biotransformation?
Key: Compound NOT metabolized
